// provenance: patent US20230270113A1

Tested on: Venturia inaequalis
TEST NAME: Example 1b: greenhouse control of apple scab, reduced rates of phthalimides and difenoconazole
Format: in vivo
TEST SETTINGS: Table 5; captan or folpet 900, difenoconazole 35, tebuconazole 150, fluopyram 150 gAI/ha
Each entry below carries its reported % control observed on leaves 26 DAYS after the application.
Give the number; % is assumed, so skip it.

Would you please look over these solved cases?
>  <MOLECULE>
O=C1C2CC=CCC2C(=O)N1SC(Cl)(Cl)Cl (centres unmarked)

>  <ASSAYED TARGET>
Venturia inaequalis

>  <REPORTED MEASUREMENT>
77

$$$$
>  <MOLECULE>
CC(C)(C)C(O)(CCc1ccc(Cl)cc1)Cn1cncn1 (centres unmarked)

>  <ASSAYED TARGET>
Venturia inaequalis

>  <REPORTED MEASUREMENT>
78.2

$$$$
>  <MOLECULE>
O=C(NCCc1ncc(C(F)(F)F)cc1Cl)c1ccccc1C(F)(F)F

>  <ASSAYED TARGET>
Venturia inaequalis

>  <REPORTED MEASUREMENT>
76.2

$$$$
>  <MOLECULE>
O=C1c2ccccc2C(=O)N1SC(Cl)(Cl)Cl

>  <ASSAYED TARGET>
Venturia inaequalis

>  <REPORTED MEASUREMENT>
73.4

$$$$

input: Bench note: what % control observed on leaves 26 DAYS after the application did CC1COC(Cn2cncn2)(c2ccc(Oc3ccc(Cl)cc3)cc2Cl)O1 (centres unmarked) show?
output: 73.1
